B1: TMEM175 (parent)
chain: ALLHQAETLQPSVWFGGREHVLMF

Variants of: B1
protocolDetails: protein stability index of a GFP-peptide fusion (GPS, HEK-293T) (PSI 1-6); higher = more stable;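 also: lentivirally expressed fusions sorted by FACS into six bins by GFP to DsRed ratio, PSI derived from sequencing read proportions per bin multiplied by bin number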
conditionDetails: c terminus: a fixed tail appended
valueType: protein stability index
// response body must contain only the number

// worked examples, protein stability index included
> print(dat)
   mutationlist                valuetype  result
1           Q5M  protein stability index    3.42
2          E19A  protein stability index    2.27
3          E19C  protein stability index    3.88
4          R18V  protein stability index    1.44
5          M23D  protein stability index    1.04

Form field: reported protein stability index of `G17H` 2.45

Origin of measurements: the supplement of paper PMC10567573
